Species on record: Rattus norvegicus
Assay: animal or person
Description: In vivo inhibition of apomorphine induced hyperactivity in rats.
Measure: ED50 (µmol/kg)
Please give a number only; it is taken to be in µmol/kg.

// known answers, use as guide
Compound	Units Label	ED50
CCc1cc(Cl)c(OC)c(C(=O)NC[C@@H]2CCCN2CC)c1O [ETICLOPRIDE]	µmol/kg	0.032
CCCc1cc(Cl)c(OC)c(C(=O)NC[C@@H]2CCCN2CC)c1O	µmol/kg	0.1

Exam item: I'd like to know its ED50. The compound in question is "CCN1CCC[C@H]1CNC(=O)c1c(O)c(C)cc(Cl)c1OC"
Marked response: 0.74

Exam item: Consider the compound shown here: "CCN1CCC[C@H]1CNC(=O)c1c(O)c(Br)cc(Cl)c1OC" What is its recorded ED50?
Marked response: 0.95

Exam item: Item "CCc1cc(Cl)c(O)c(C(=O)NC[C@@H]2CCCN2CC)c1OC" has what recorded ED50?
Marked response: 2.5

###

Test: in vivo
Conditions: rat, ip
Description: Compound was tested for its acute toxicity in rat after ip administration
Please note: LD50 exactly at 400 µmol/kg is Not fulfilled. Only values below 400 µmol/kg get Fulfilled.

Compound	Group
CCN1CCC[C@H]1CNC(=O)c1c(O)c(Cl)cc(Cl)c1OC [RACLOPRIDE]	Not fulfilled
CCN1CCC[C@H]1CNC(=O)c1c(O)c(Br)cc(Br)c1OC	Not fulfilled
O=C(CCCN1CCC(O)(c2ccc(Cl)cc2)CC1)c1ccc(F)cc1	Fulfilled
CCc1cc(Br)c(OC)c(C(=O)NC[C@@H]2CCCN2CC)c1O	Fulfilled
CCc1ccc(OC)c(C(=O)NC[C@@H]2CCCN2CC)c1O	Fulfilled

Exam item: Strictly below 400 µmol/kg in LD50? "CCc1cc(CC)c(OC)c(C(=O)NC[C@@H]2CCCN2CC)c1O"
Marked response: Not fulfilled

Exam item: Strictly below 400 µmol/kg: is that where LD50 of CCc1cc(Cl)c(OC)c(C(=O)NC[C@@H]2CCCN2CC)c1O [ETICLOPRIDE] sits?
Marked response: Fulfilled

###

Recorded ED50 for the following compounds
Species: Rattus norvegicus
Assay: animal or person
# include the unit after the value

Compound	Recorded Result
CCc1cc(CC)c(OC)c(C(=O)NC[C@@H]2CCCN2CC)c1O	0.076 µmol/kg
CCN1CCC[C@H]1CNC(=O)c1c(O)c(Br)cc(F)c1OC	0.16 µmol/kg
CCc1cc(F)c(OC)c(C(=O)NC[C@@H]2CCCN2CC)c1O	0.065 µmol/kg
CCN1CCC[C@H]1CNC(=O)c1c(O)c(Cl)cc(Cl)c1OC [RACLOPRIDE]	0.13 µmol/kg
CCN1CCC[C@H]1CNC(=O)c1cc(Br)cc(Br)c1OC	0.66 µmol/kg
CCc1ccc(OC)c(C(=O)NC[C@@H]2CCCN2CC)c1O	0.12 µmol/kg

Exam item: Fill blank: measured ED50 of the compound "CCc1cc(Br)c(O)c(C(=O)NC[C@@H]2CCCN2CC)c1OC" is ____.
Marked response: 0.87 µmol/kg

Exam item: Given the entry "CCN1CCC[C@H]1CNC(=O)c1cc(Br)cc(Br)c1O" , report its measured ED50.
Marked response: 28 µmol/kg

Exam item: Which ED50 value belongs to "CCN1CCC[C@@H]1CNC(=O)c1c(O)c(Cl)cc(Cl)c1OC" ?
Marked response: 1.07 µmol/kg

Exam item: Can you share its ED50? I mean this compound: "CCN1CCC[C@H]1CNC(=O)c1c(O)c(C)cc(C)c1OC"
Marked response: 1.86 µmol/kg

Exam item: For the compound "CCN1CCC[C@H]1CNC(=O)c1c(O)c(Br)cc(Br)c1OC" , what ED50 is on record?
Marked response: 0.65 µmol/kg

Exam item: Reported ED50, compound "CCc1cc(Br)c(OC)c(C(=O)NC[C@@H]2CCCN2CC)c1O" : ____
Marked response: 0.085 µmol/kg
